- System: HEK-293T
- Assay: Multiplex assay against HEK293T
- Assay type: toxicity, cell-based
- Condition Context: human, 12 h, 1 µM, compound concentration 1 uM, replicate 2
Threshold check on Population Membrane Permeable-Phenotype (%): at or above 6% gives fulfilled, strictly below gives not fulfilled.

Does the molecule CC(Cc1ccc(O)c(O)c1)C(C)Cc1ccc(O)c(O)c1 (centres undefined) [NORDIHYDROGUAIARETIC ACID] have recorded Population Membrane Permeable-Phenotype (%) that is 6% or more?
not fulfilled

What do you get for Cl.Cn1c2c(c3ccc(Cl)c(Cl)c31)C(C#N)C1(CCNCC1)NC2=O (centres undefined) ?
not fulfilled

What do you get for `CCCc1cc(C)[nH]c(=O)c1CNC(=O)c1cc(-c2ccc(N3CCN(C(C)C)CC3)nc2)cc2c1cnn2C(C)C` ?
not fulfilled

What do you get for `CC[C@@H]1C(=O)N(C)c2cnc(Nc3ccc(C(=O)NC4CCN(C)CC4)cc3OC)nc2N1C1CCCC1` ?
fulfilled

What do you get for `Cc1c(Nc2ccc(S(=O)(=O)N3CCN(C)CC3)cc2F)nc2ccc(Nc3cnn(C4CC4)c3)cn2c1=O` ?
fulfilled

What do you get for `Cc1ccc(S(=O)(=O)NC2c3ccccc3Oc3ccccc32)cc1` ?
fulfilled

What do you get for `Cl.NC[C@@H]1O[C@H](C23CC4CC(CC(C4)C2)C3)Cc2c1ccc(O)c2O` ?
fulfilled

What do you get for `C=CC(=O)Nc1cc(-n2c(=O)ccc3cnc4ccc(-c5ccc(NS(C)(=O)=O)cc5)cc4c32)ccc1C` ?
fulfilled

###

- Test system: Fibroblast
- Assay: Multiplex assay against human fibroblast
- Assay type: toxicity, cell-based
- Condition Context: 12 h, 1 µM, compound concentration 1 uM, replicate 2
Readout Kind: Population Membrane Permeable-Phenotype (%)
Give just the numeric value; % need not be written.

Quick one: Population Membrane Permeable-Phenotype (%) of `CCOc1ccn(-c2ccc(F)cc2)c(=O)c1C(=O)Nc1ccc(Oc2ccnc(N)c2Cl)c(F)c1` ?
17

What do you get for CCCCCNC(=N)N/N=C/c1c[nH]c2ccc(OC)cc12.O=C(O)/C=C\C(=O)O [TEGASEROD MALEATE] ?
4

What do you get for `Oc1cccc(-c2nc(N3CCOCC3)c3oc4ncccc4c3n2)c1` ?
2

###

- Test system: Fibroblast
- Assay: Multiplex assay against human fibroblast
- Type: toxicity, cell-based
- Condition Context: 12 h, 1 µM, compound concentration 1 uM, replicate 2
Grouping key: Population Hoechst High Intensity Objects (%). Bins: interval 1 (below 5%), interval 2 (5% to below 20%), interval 3 (20% or more)

Assign a category based on measured Population Hoechst High Intensity Objects (%) for `Cc1c(P(=S)(c2ccccc2)c2ccccc2)n2ccccc2[n+]1C/C=C/c1ccccc1.[Br-]` and give only the class name.
interval 3

What do you get for `CC(/C=C1\SC(=S)N(CCCC(=O)Nc2ccc(C(=O)O)c(O)c2)C1=O)=C\c1ccccc1` ?
interval 2

What do you get for `CC(C)c1cc(Nc2nc(N3CCC[C@H](N)C3)ncc2C(N)=O)cc(C(C)C)n1` ?
interval 2

What do you get for CC(Cc1ccc(O)c(O)c1)C(C)Cc1ccc(O)c(O)c1 (stereo not drawn) [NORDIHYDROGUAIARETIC ACID] ?
interval 2

What do you get for `CCCc1cc(C)[nH]c(=O)c1CNC(=O)c1cc(-c2ccc(N3CCN(C(C)C)CC3)nc2)cc2c1cnn2C(C)C` ?
interval 2

What do you get for `CC(C)[C@H](CO)Nc1nc(Nc2cccc(Cl)c2)c2ncn(C(C)C)c2n1` ?
interval 2

What do you get for `NC(=O)c1ccc2nc(-c3ccc(C4(N)CCC4)cc3)c(-c3ccccc3)n2n1` ?
interval 3

What do you get for `Cc1ccc(S(=O)(=O)NC2c3ccccc3Oc3ccccc32)cc1` ?
interval 1

What do you get for `C[C@@H](Oc1cc(-n2cnc3ccc(CN4CCN(C)CC4)cc32)sc1C(N)=O)c1ccccc1C(F)(F)F` ?
interval 1

What do you get for `CCOc1ccn(-c2ccc(F)cc2)c(=O)c1C(=O)Nc1ccc(Oc2ccnc(N)c2Cl)c(F)c1` ?
interval 3

What do you get for `Cc1c(Nc2ccc(S(=O)(=O)N3CCN(C)CC3)cc2F)nc2ccc(Nc3cnn(C4CC4)c3)cn2c1=O` ?
interval 3

What do you get for `CC[C@H](Nc1ncnc2[nH]cnc12)c1nc2cccc(F)c2c(=O)n1-c1ccccc1` ?
interval 3

What do you get for `CCOC(=O)CCNc1cc(N2CCc3ccccc3CC2)nc(-c2ccccn2)n1` ?
interval 3

What do you get for `Cc1c(Nc2ccc(S(=O)(=O)N3CCN(C)CC3)cc2F)nc2ccc(-c3cnn(C4CC4)c3)cn2c1=O` ?
interval 3

What do you get for `CCCCN(CC)c1nc(C)nc2c1c(C)cn2-c1c(C)cc(C)cc1C.Cl` ?
interval 1

What do you get for CCCCCNC(=N)N/N=C/c1c[nH]c2ccc(OC)cc12.O=C(O)/C=C\C(=O)O [TEGASEROD MALEATE] ?
interval 1

What do you get for `N#Cc1cccc(C(=O)Nc2cc(-c3ccccc3)nn2-c2ccccc2)c1` ?
interval 1

###

- Tested on: U2OS
- Assay: Multiplex assay against U2OS
- Type: toxicity, cell-based
- Condition Context: human, 48 h, 10 µM, compound concentration 10 uM, replicate 2
Assign Population Fragmented Nuclei (%) to each entry below.
Give just the numeric value; % need not be written.

Quick one: Population Fragmented Nuclei (%) of `CC(C)c1cc(Nc2nc(N3CCC[C@H](N)C3)ncc2C(N)=O)cc(C(C)C)n1` ?
34

What do you get for CC(C)[C@H](CO)Nc1nc(Nc2cccc(Cl)c2)c2ncn(C(C)C)c2n1 [PURVALANOLA] ?
16

What do you get for `CC(/C=C1\SC(=S)N(CCCC(=O)Nc2ccc(C(=O)O)c(O)c2)C1=O)=C\c1ccccc1` ?
4

What do you get for CC(Cc1ccc(O)c(O)c1)C(C)Cc1ccc(O)c(O)c1 (stereo not drawn) [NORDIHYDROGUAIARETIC ACID] ?
1

What do you get for `CN(c1cc(C(F)(F)F)nc(OCCC(=O)O)n1)c1cccc2c1CCC2` ?
8

What do you get for `Cc1c(Nc2ccc(S(=O)(=O)N3CCN(C)CC3)cc2F)nc2ccc(-c3cnn(C4CC4)c3)cn2c1=O` ?
57

What do you get for `Cc1ccc(S(=O)(=O)NC2c3ccccc3Oc3ccccc32)cc1` ?
7

What do you get for `N#Cc1cccc(C(=O)Nc2cc(-c3ccccc3)nn2-c2ccccc2)c1` ?
13

###

Assign Growth Rate to each entry below.
- System: HEK-293T
- Assay: Incucyte cell viability with HEK293T; further: filed as whole numbers so only -1 and 0 and 1 occur
- Type: toxicity, cell-based
- Condition Context: human, 0 h, 10 µM, compound concentration 10 uM, replicate number 2, timepoint 0 hours

// fetch HEK-293T Growth Rate for CN(CCOc1ccc(CC2SC(=O)NC2=O)cc1)c1ccccn1 (configuration not stated)
0

What do you get for `Cl.NC[C@@H]1O[C@H](C23CC4CC(CC(C4)C2)C3)Cc2c1ccc(O)c2O` ?
1

What do you get for `CC[C@@H]1C(=O)N(C)c2cnc(Nc3ccc(C(=O)NC4CCN(C)CC4)cc3OC)nc2N1C1CCCC1` ?
1

What do you get for `C[C@H](NC(=O)Nc1cc2[nH]ncc2c(CO)n1)c1ccccn1` ?
1

What do you get for `COc1cc(OC)c(NC(=O)c2ccc(Cc3cc4c(cc3C)C(C)(C)CCC4(C)C)o2)c(OC)c1` ?
0

What do you get for `CNC(=O)Nc1ccc2c(c1)CC[C@@]21OC(=O)N(CC(=O)N(Cc2ccc(F)cc2)[C@@H](C)C(F)(F)F)C1=O` ?
1

What do you get for `COc1ccc(Br)cc1S(=O)(=O)NC(=O)/C=C/c1ccccc1Cc1ccc2ccccc2c1` ?
0

What do you get for `N#CC1(c2ccccn2)CCN(Cc2cc(C(=O)O)c(=O)n3ccccc23)CC1` ?
0

What do you get for CCCCCNC(=N)N/N=C/c1c[nH]c2ccc(OC)cc12.O=C(O)/C=C\C(=O)O [TEGASEROD MALEATE] ?
1

What do you get for COc1cccc(CNC(=O)c2nc3scc(COCc4ccc(C(=O)O)cc4)c3c(=O)[nH]2)c1 [T-26c] ?
1

What do you get for `COc1ccc(CCc2nc3cc(-c4c(C)noc4C)ccc3n2C[C@H](C)N2CCOCC2)cc1Cl` ?
1

What do you get for `Cl.O=C(Cc1ccc(Cl)c(Cl)c1)N1CCCC[C@H]1CN1CCCC1` ?
0

What do you get for `Cc1c(P(=S)(c2ccccc2)c2ccccc2)n2ccccc2[n+]1C/C=C/c1ccccc1.[Br-]` ?
1

What do you get for `COc1ccc2c(c1)O[C@@H](c1ccc(OC)c(OC)c1)C[C@H]2NC(=O)C1(c2ccc3c(c2)OC(F)(F)O3)CC1` ?
0

What do you get for `CN1CCN(c2ccc(-c3cccc(CN4CCOCC4)c3)cc2NC(=O)c2c[nH]c(=O)cc2C(F)(F)F)CC1` ?
1

What do you get for `CC(C)(O)c1cncc(-c2nc3ccc(F)cc3n2C2CC2)c1` ?
1

What do you get for `CCOC(=O)c1ccc(C#Cc2ccc3c(c2)C(C)(C)CCS3)nc1` ?
0

Every entry's value here was drawn from ChEMBL document CHEMBL4689842.
